# test: Biosimilar mucus-permeating assay, in vitro cell-free model
# Format: in vitro ADME
# settings: cell-free; biosimilar mucus (0.3% PAA, 5% mucin, 3.1% BSA, 0.6% lipid mixture, Tween 80) on 10 KDa centrifugal filter; peptide 1 mM, 1 mL, PBS pH 7.2; 470× g, 25 ℃; 240 min; OPA method; mean ± SEM, at least three times in triplicate
Where a SMILES comes first, the peptide text is derived from it.
Give TRUE when the value for Final cumulative mucus permeability at 240 min is at least 90%. Give FALSE when it is less.

compound | labelValue
CSCC[C@H](NC(=O)[C@@H](N)Cc1ccc(O)cc1)C(=O)N[C@@H](CO)C(=O)N[C@H](C(=O)O)C(C)C [Pep3, YMSV] (H-YMSV-OH) | FALSE

Given CSCC[C@H](NC(=O)[C@@H](N)CCCCN)C(=O)N1CCC[C@H]1C(=O)N[C@H](C(=O)O)C(C)C [Pep5, KMPV] (H-KMPV-OH) , state whether its Final cumulative mucus permeability at 240 min is at least 90%.
FALSE

Given CSCC[C@H](N)C(=O)N[C@@H](C)C(=O)N[C@@H](CC(N)=O)C(=O)N[C@H](C(=O)O)[C@@H](C)O [Pep2, MANT] (H-MANT-OH) , state whether its Final cumulative mucus permeability at 240 min is at least 90%.
FALSE

Given C[C@@H](O)[C@H](N)C(=O)N[C@@H](CC(N)=O)C(=O)NCC(=O)N[C@@H](CCC(N)=O)C(=O)O [Pep4, TNGQ] (H-TNGQ-OH) , state whether its Final cumulative mucus permeability at 240 min is at least 90%.
TRUE
